assay-remarks: Clearance in Sprague-Dawley rat at […], iv by LC-MS/MS analysis
Type: ADME, organism-based
condition-context: in vivo
endpoint: clearance (mL/min/kg)
# number only, unit mL/min/kg dropped from output

molecule `Cc1ccc(C(=O)Nc2ccc(OCC3CCN(C)CC3)c(C(F)(F)F)c2)cc1NC(=O)C1(c2ncnc3[nH]ccc23)CC1` , clearance observed: 68.3

----------
assay-remarks: Oral bioavailability in Sprague-Dawley rat at 10 mg/kg by LC-MS/MS analysis
Type: ADME, organism-based
condition-context: in vivo
endpoint: bioavailability (%)
Your answer should be a plain number; it is taken to be in %.

`Cc1ccc(C(=O)Nc2ccc(OCC3CCN(C)CC3)c(C(F)(F)F)c2)cc1NC(=O)C1(c2ncnc3[nH]ccc23)CC1` has a reported bioavailability of 22.9

----------
assay-remarks: Tmax in Sprague-Dawley rat at […], iv by LC-MS/MS analysis
Assay type: ADME, organism-based
condition-context: in vivo
endpoint: Tmax (min)
Answer with a number only, understood to be in min.

For reference, reported Tmax for `Cc1ccc(C(=O)Nc2ccc(OCC3CCN(C)CC3)c(C(F)(F)F)c2)cc1NC(=O)C1(c2ncnc3[nH]ccc23)CC1` stands at 4.98

----------
assay-remarks: Tmax in Sprague-Dawley rat at 10 mg/kg, po by LC-MS/MS analysis
Format: ADME, organism-based
condition-context: in vivo
endpoint: Tmax (h)
Please give a number only; it is taken to be in h.

Looking up `Cc1ccc(C(=O)Nc2ccc(OCC3CCN(C)CC3)c(C(F)(F)F)c2)cc1NC(=O)C1(c2ncnc3[nH]ccc23)CC1` , I see its Tmax listed as 4

----------
assay-remarks: Volume of distribution at steady state in Sprague-Dawley rat at […], iv by LC-MS/MS analysis
Type: ADME, organism-based
condition-context: in vivo, read-out: Vdss
endpoint: Vd (L/kg)
Field: numeric (L/kg). Do not append units.

Vd reading for `Cc1ccc(C(=O)Nc2ccc(OCC3CCN(C)CC3)c(C(F)(F)F)c2)cc1NC(=O)C1(c2ncnc3[nH]ccc23)CC1` : 45.7

----------
assay-remarks: Half life in Sprague-Dawley rat at […], iv by LC-MS/MS analysis
Format: ADME, organism-based
condition-context: in vivo
endpoint: half-life (h)
Use h as the unit, but write only the number.

Data point: `Cc1ccc(C(=O)Nc2ccc(OCC3CCN(C)CC3)c(C(F)(F)F)c2)cc1NC(=O)C1(c2ncnc3[nH]ccc23)CC1` ; half-life = 7.7

----------
assay-remarks: Cmax in Sprague-Dawley rat at 10 mg/kg, po by LC-MS/MS analysis
Assay type: ADME, organism-based
Design: dose 10 mg/kg, route oral
condition-context: in vivo
endpoint: Cmax (ng/mL)
Respond numerically; units are ng/mL and should not be typed.

Sample `Cc1ccc(C(=O)Nc2ccc(OCC3CCN(C)CC3)c(C(F)(F)F)c2)cc1NC(=O)C1(c2ncnc3[nH]ccc23)CC1` ; Cmax observed: 72.1

----------
assay-remarks: AUC (0 to t) in Sprague-Dawley rat at […], iv by LC-MS/MS analysis
Format: ADME, organism-based
condition-context: in vivo
endpoint: AUC(0-t) (ng·h/mL)
Please respond with the number in ng·h/mL and leave the unit unwritten.

# AUC(0-t) (molecule: `Cc1ccc(C(=O)Nc2ccc(OCC3CCN(C)CC3)c(C(F)(F)F)c2)cc1NC(=O)C1(c2ncnc3[nH]ccc23)CC1` ) is 549
